Source: the Human Domainome abundance scans (Beltran et al. 2025)

Please respond with reported abundance fitness for every item in the list.
B1: Tudor domain-containing protein 3, residues 554 to 611; numbered along this chain, Q9H7E2 (parent)
chain: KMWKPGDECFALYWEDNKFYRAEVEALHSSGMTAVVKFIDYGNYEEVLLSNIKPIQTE

# Variants of: B1
# test.name: abundance fitness (aPCA) (normalised: wild type 0, dead -1); higher = more abundant; growth selection in yeast, the domain comes from the species named
# condition.summary: Homo sapiens
Answers are plain numbers.

Look over these answered cases.
mutant.name	result.number
K1R	-0.326
V24T	-0.863
E23H	0.071
E8Y	-0.079

Report abundance fitness for every entry below.
1. Y13L
2. V47C
3. V24F
4. K4F
5. Y13N

Outgoing:
1: -0.15; 2: -0.296; 3: -0.22; 4: -0.221; 5: 0

Incoming: Tell me the measured abundance fitness of A34T , please.
Outgoing: -0.948
